What AC50 was measured for each of the following?
- target: Caspase-6 (Homo sapiens, UniProt P55212)
- Sequence (P55212 24-179 limits assumed): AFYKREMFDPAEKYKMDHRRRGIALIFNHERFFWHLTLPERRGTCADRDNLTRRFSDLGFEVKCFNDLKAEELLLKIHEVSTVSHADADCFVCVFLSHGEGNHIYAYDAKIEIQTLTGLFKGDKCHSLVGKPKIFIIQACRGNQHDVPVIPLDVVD
- Sequence (P55212 194-293 limits assumed): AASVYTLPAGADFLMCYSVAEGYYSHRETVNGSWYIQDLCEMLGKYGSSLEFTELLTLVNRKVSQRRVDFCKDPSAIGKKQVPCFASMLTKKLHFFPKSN
- assay_protocol: inhibition of CASP6 peptide cleavage – biochemical, VEID-R110 fluorescence, cherry-pick, dose response (AID 720632)
The source made the active and inactive calls. How the calls were made is not given here.

# AC50 (molecule: `O=C(Nc1cccc2c(=O)[nH][nH]c(=O)c12)c1ccc([N+](=O)[O-])cc1` ) is 2.58 µM (active)

# AC50 (molecule: `O=C(O)CN1C(=O)/C(=C\c2cc([N+](=O)[O-])ccc2OCc2ccccc2Cl)SC1=S` ) is 12.9 µM (active)

# AC50 (molecule: `COc1ccccc1NC(=O)COC(=O)c1cc2c(s1)CCC2` ) is 5.53 µM (active)

# AC50 (molecule: `O=C(O)c1cc([N+](=O)[O-])cc2c1C=Cc1ccccc1O2` ) is 37.5 µM (active)
